The reported measurements were obtained from ChEMBL document CHEMBL3232739.

assay: Mean residence time in Sprague-Dawley rat at 2 mg/kg, iv; assay type: ADME, organism-based; set-up: dose 2 mg/kg, route intravenous; conditions: in vivo
EXPERIMENTAL_ENDPOINT: MRT (h)
Your answer is read as h, so omit the unit and give the number.

Can you share its MRT? I mean this compound: Cc1ccc(F)cc1C(C)(C)C[C@@](O)(Cc1cc2cnccc2[nH]1)C(C)(C)C
1.38

----------
Observed IC50 values for Glucocorticoid receptor (Homo sapiens) are listed in what follows.
EXPERIMENTAL_ENDPOINT: IC50 (nM)

Recorded results for 6 compounds are shown here.
compound="COc1ccc(F)cc1C(C)(C)CC(O)(Cc1cc2ccncc2[nH]1)C(C)(C)C (centres undefined)" experimental_endpoint=IC50 scale_unit=nM numeric_value=36
compound="COc1ccc(F)cc1C(C)(C)CC(O)(Cc1cc2cnccc2[nH]1)C1CC1 (centres undefined)" experimental_endpoint=IC50 scale_unit=nM numeric_value=8
compound="COc1ccc(F)cc1C(C)(C)CC(O)(Cc1cc2ccncc2[nH]1)C1CCC1 (centres undefined)" experimental_endpoint=IC50 scale_unit=nM numeric_value=260
compound="COc1ccc(F)cc1C(C)(C)CC(O)(Cc1cc2ccncc2[nH]1)C(C)C (centres undefined)" experimental_endpoint=IC50 scale_unit=nM numeric_value=73
compound=Cc1ccc(F)cc1C(C)(C)C[C@@](O)(Cc1cc2cnccc2[nH]1)C(C)(C)C experimental_endpoint=IC50 scale_unit=nM numeric_value=27
compound="COc1ccc(F)cc1C(C)(C)CC(O)(Cc1cc2cnccc2[nH]1)C(C)(C)C (centres undefined)" experimental_endpoint=IC50 scale_unit=nM numeric_value=9

A: COc1ccc(F)cc1C(C)(C)CC(O)(Cc1cc2ccncc2[nH]1)C(F)(F)F (centres undefined)
B: Cc1ccc(F)cc1C(C)(C)CC(O)(Cc1cc2cnccc2[nH]1)C(C)(C)C (racemic)
C: Cc1ccc(F)cc1C(C)(C)CC(O)(Cc1cc2cnccc2[nH]1)C1CC1 (centres undefined)
D: CCC(O)(Cc1cc2ccncc2[nH]1)CC(C)(C)c1cc(F)ccc1OC (centres undefined)
Sort (4 compounds) by IC50: min first. Use the labels to give the ranking in the order requested.
A, C, B, D
(A: 10 nM, C: 24 nM, B: 35 nM, D: 220 nM)
